Where these numbers come from: paper PMC6858373

Target: full-length P. pyralis luciferase (Photinus pyralis, UniProt P08659, K549A/L550V/N119G/N50D/S548I)
Sequence (P08659 whole entry N50D/N119G/S548I/K549A/L550V, looked up): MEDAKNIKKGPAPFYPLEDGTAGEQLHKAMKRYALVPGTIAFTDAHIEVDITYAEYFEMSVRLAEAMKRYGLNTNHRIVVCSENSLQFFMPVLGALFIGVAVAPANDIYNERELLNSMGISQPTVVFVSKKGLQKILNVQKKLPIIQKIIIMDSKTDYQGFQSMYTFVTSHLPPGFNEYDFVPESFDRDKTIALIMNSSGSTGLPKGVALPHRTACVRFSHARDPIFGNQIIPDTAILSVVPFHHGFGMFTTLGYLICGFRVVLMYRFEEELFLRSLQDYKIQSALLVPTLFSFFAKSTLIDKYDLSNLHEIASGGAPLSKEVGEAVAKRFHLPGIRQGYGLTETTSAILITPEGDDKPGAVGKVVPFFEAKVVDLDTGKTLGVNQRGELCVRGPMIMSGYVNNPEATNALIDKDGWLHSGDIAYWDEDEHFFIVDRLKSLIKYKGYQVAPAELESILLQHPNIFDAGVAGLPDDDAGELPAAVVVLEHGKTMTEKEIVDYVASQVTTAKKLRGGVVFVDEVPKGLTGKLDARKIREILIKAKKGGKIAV
Assay type: cell-based
Details: CC_NCI screening; full-length luciferase counter-screen luminescence; normalized to on-plate 0.3% DMSO controls
REPORTED_ENDPOINT: Luciferase Assay % Lum

1) C=CC[C@@H]1/C=C(\C)C[C@H](C)C[C@H](OC)[C@H]2O[C@@](O)(C(=O)C(=O)N3CCCC[C@H]3C(=O)O[C@H](/C(C)=C/[C@@H]3CC[C@@H](O)[C@H](OC)C3)[C@H](C)[C@@H](O)CC1=O)[C@H](C)C[C@@H]2OC ... 77.49%
2) COc1ccc2c(c1)CC[C@@H]1[C@@H]2CC[C@]2(C)[C@@H](NCCCCCCN3C(=O)C=CC3=O)CC[C@@H]12 ... 109.98%
3) O=C(c1ccc(OCCN2CCCCC2)cc1)c1c(-c2ccc(O)cc2)sc2cc(O)ccc12 ... 91.29%
